Reference source: patent US20200339690A1

- Subject of test: human LILRB2 (human) (UniProt Q8N423)
- Test name: BLI Octet sandwich binning; competitor (antibody #1 on sensor) J-07

{"Binder": "J-04 (antibody, human IgG4 S228P, kappa, V domains shown) VH: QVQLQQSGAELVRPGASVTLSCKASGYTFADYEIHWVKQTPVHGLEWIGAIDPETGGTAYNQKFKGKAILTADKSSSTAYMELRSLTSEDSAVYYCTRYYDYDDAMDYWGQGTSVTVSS VL: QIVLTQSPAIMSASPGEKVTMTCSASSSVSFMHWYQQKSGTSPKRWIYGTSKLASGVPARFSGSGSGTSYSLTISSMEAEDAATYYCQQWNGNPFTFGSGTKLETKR", "response of antibody #2": -0.3}
{"Binder": "J-19 (antibody, human IgG4 S228P, kappa, V domains shown) VH: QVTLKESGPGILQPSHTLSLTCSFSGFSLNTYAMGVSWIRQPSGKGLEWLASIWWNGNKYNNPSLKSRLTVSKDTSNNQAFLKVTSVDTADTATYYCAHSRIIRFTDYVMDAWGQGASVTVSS VL: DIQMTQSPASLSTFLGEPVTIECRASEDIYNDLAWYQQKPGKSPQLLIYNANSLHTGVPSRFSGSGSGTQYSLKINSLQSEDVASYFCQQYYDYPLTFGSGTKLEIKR", "response of antibody #2": 0.27}
{"Binder": "J-11 (antibody, human IgG4 S228P, kappa, V domains shown) VH: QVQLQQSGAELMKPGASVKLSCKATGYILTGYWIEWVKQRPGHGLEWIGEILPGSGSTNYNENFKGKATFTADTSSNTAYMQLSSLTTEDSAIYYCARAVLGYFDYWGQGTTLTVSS VL: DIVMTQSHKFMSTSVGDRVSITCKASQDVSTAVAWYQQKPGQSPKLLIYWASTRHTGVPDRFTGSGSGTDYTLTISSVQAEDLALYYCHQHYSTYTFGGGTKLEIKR", "response of antibody #2": 0.1}
{"Binder": "J-17 (antibody, human IgG4 S228P, kappa, V domains shown) VH: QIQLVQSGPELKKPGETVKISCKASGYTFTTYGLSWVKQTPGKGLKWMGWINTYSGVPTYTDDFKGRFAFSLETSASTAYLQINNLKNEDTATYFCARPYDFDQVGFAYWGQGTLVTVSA VL: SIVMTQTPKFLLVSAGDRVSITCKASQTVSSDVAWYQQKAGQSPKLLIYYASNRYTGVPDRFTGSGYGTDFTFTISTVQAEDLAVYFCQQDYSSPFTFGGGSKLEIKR", "response of antibody #2": 0.04}
